B1: tRNA (parent)
chain: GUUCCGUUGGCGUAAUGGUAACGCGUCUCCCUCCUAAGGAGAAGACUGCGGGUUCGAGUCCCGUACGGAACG

- Variants of: B1
- TEST NAME: yeast fitness relative to wild type (ratio to wild type); higher = fitter; tRNA-Arg(CCU), competitive growth, 37 C, YPD
This sample holds only a part of the variants without activity.
MEASUREMENT LABEL: yeast fitness
Numbers only.

For each entry beneath this line, provide reported yeast fitness.
1. GUUCCGUUGGCGUAAUGGUAACGCGACUCCCUCCUAAGGAGAAGACUGCGGGUUCGAGUCGCGUACGGAUCG [U26A C61G A70U]
2. GUUUCGUUGGCGUAAUGGUCACGCGUCUCACUCCUAAGGAGAAGACUGCGGGUUAGAGUCCCGUACAGAACG [C4U A20C C30A C55A G67A]
3. GUUCCGUAGGCGUAAUGGUAACGCGUCUCCCUCCUAAGGAGAAGACUGCGGGUUCGAGUCCCGUACGGGACG [U8A A69G]
4. GUUCCGUUGGCGUAAUGGUAACGCGUCUCCCUCCUAAGGAGAACACUGCGGGUUCGAGUCCCGUAUGGAACG [G44C C66U]
5. GUUCUGUUGGCGUAAUGGUAACGCGUCUCCCUCCUAAGGAGAAGACUGCGGAUUCGAGUCCCGUAUGGAACG [C5U G52A C66U]
6. GUUCCGUUGACGUAAUGGUAACGCGUCUCCCUCCUAAGGAGAAGACUGCGGGUUCGAGUCCCGUACGGAGCG [G10A A70G]
7. GUUCCGUUGGCGUAAUGGUUACGCGUCUCCCUCCUAAGGAGAAGACAGCGGGUUCGAGUCCCGUACGGACCG [A20U U47A A70C]
8. GUUCCGUUGGCGUAAUGGUAACGCGUCUUCCUCCUAAGGUGAAGACUGCGGGUUCCAGUCCCGUACGGAACG [C29U A40U G56C]

### Response
0.764
0.53
0.604
0.692
0.584
0.743
0.536
0.552
